Parameter: koff. Scope: all listed entries.
# subject-of-test: T1, human C1s (human, UniProt P09871 16-688)
# T1 construct: also called hC1s; serum-derived human C1s (CompTech)
# T1 sequence: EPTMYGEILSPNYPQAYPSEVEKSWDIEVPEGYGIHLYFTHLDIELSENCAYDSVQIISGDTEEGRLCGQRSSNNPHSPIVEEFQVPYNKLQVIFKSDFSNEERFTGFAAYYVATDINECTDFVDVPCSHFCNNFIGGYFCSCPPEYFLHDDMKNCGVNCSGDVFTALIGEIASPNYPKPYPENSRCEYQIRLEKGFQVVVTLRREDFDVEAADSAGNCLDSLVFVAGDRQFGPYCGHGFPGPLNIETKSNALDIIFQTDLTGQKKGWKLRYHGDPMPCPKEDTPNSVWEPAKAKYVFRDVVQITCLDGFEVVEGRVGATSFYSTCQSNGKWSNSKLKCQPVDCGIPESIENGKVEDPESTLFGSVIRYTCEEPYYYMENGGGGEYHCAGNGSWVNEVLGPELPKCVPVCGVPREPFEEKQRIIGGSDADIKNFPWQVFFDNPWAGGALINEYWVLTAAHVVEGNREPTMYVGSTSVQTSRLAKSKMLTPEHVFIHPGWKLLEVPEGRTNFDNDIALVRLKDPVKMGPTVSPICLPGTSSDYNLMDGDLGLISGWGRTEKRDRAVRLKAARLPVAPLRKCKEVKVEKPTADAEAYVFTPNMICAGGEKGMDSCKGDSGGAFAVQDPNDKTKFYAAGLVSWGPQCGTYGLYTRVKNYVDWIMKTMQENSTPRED
# method-summary: SPR, Ab captured; pH 5.8, 1.2 mM Ca

{"columns": ["binder", "koff"],
 "data": [
  ["C1_IPN92H0026-SG4GK/IPN93L0029-SK1 (antibody, human IgG4 S228P, kappa, name in Kabat numbering, V domains shown, also called IPN92H0026/IPN93L0029) VH: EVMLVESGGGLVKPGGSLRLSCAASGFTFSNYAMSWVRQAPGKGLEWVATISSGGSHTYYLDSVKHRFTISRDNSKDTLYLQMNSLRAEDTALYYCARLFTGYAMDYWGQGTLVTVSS VL: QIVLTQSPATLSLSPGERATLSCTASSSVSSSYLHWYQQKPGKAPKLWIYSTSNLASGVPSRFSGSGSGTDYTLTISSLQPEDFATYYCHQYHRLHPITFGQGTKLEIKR", "0.00613 s⁻¹"],
  ["C1_IPN92H0038-SG4GK/IPN93L0031-SK1 (antibody, human IgG4 S228P, kappa, name in Kabat numbering, V domains shown, also called IPN92H0038/IPN93L0031) VH: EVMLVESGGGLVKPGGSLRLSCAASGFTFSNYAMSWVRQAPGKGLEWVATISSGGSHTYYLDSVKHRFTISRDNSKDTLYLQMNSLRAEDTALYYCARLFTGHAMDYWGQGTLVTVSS VL: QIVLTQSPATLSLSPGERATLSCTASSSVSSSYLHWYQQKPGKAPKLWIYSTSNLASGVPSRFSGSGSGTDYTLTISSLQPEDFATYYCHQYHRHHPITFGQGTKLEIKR", "0.00146 s⁻¹"],
  ["C1_IPN92H0033-SG4GK/IPN93L0030-SK1 (antibody, human IgG4 S228P, kappa, name in Kabat numbering, V domains shown, also called IPN92H0033/IPN93L0030) VH: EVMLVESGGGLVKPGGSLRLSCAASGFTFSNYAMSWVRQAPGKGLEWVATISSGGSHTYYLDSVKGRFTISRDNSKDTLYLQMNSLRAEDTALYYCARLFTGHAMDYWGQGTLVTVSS VL: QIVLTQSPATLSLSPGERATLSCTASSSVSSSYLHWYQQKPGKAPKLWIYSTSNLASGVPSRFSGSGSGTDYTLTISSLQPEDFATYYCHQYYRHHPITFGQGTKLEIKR", "0.0449 s⁻¹"]
]}
